Data origin: PubChem BioAssay AID1347131

assay: qHTS Assay for Foot and Mouth Disease Virus Antivirals: Primary Screen against the MLPCN compound library; conditions: FMDV antiviral cell-based qHTS; series mostly up to 57.9 µM; further: nearly all actives have a fitted effect of over 55% in size
Among all 410,000 compounds or so, about 2,000 (0.49%) were called active. About 8% were inconclusive and are not listed. The call rests on the fitted dose curve; tested in HEK293 reporter line. Shown is part of a subset that was picked to be rich in actives.
Could you please pick one outcome from this set? 1 (active), 0 (inactive)

Solved cases below.
COMPOUND | QUALITATIVE LABEL
COc1ccc(NC(=O)c2sc3nc(-c4cc5cccc(OC)c5oc4=O)[nH]c(=O)c3c2C)cc1 | 0
Cc1cccnc1NC(=O)c1cc2ccccc2oc1=O | 1
N=c1oc2ccccc2cc1C(=O)Nc1ccccc1 | 1
O=C(NCc1ccc(F)cc1)C(=O)NCC(c1cccs1)S(=O)(=O)c1cccs1 (stereo unspecified) | 0
N#CC1=C(N)Nc2nc3ccccc3n2C1c1ccc(F)cc1 (stereo unspecified) | 0
Cc1ccc(NC(=O)c2cc3ccccc3oc2=O)cc1S(=O)(=O)N(C)C | 0
COc1ccc(NC(=O)c2cc3ccccc3o/c2=N\NS(=O)(=O)c2ccc(C)cc2)cc1 | 0
C=CCn1c(=O)c(C(=O)Nc2ncccc2C)c(O)c2ccccc21 | 0
COc1ccc(NC(=O)c2[nH]c(C)c(C(C)=O)c2C)cc1 | 0
COc1cccc2cc(C(=O)Nc3cccc(C)n3)c(=O)oc12 | 1

Could you now consider this next compound?
Test call for this compound, please: Cc1cccc(C)c1NC(=O)c1cc(-c2ccccn2)nc2ccccc12
0

---

assay: qHTS Assay for Foot and Mouth Disease Virus Antivirals: Primary Screen against the MLPCN compound library; details: FMDV antiviral cell-based qHTS; series mostly up to 57.9 µM; further: nearly all actives have a fitted effect of over 55% in size
The whole screen tested about 410,000 compounds, of which about 2,000 (0.49%) were called active. About 8% were inconclusive and are not listed. Calls come from the whole dose curve; tested in HEK293 reporter line. The list comes from a sample in which actives are over-represented; it also holds close analogues and randomly drawn compounds.
Answer with one of the outcomes given here: active, inactive

Recorded results for 3 compounds are shown here.
COMPOUND | QUALITATIVE LABEL
Cc1ccccc1OCc1n(CC(=O)OC2CC(C)CCC2C(C)C)c2ccccc2[n+]1C (stereo not given) | active
Cc1cc(C)nc(NS(=O)(=O)c2ccc(-n3cccc3)cc2)n1 | inactive
Cc1cc[n+](CC(=O)c2ccc(NC(=O)c3ccccc3)cc2)c2ccccc12 | inactive

So what was the verdict on CC1CCC(C(C)C)C(OC(=O)Cn2c(-c3ccc(Br)cc3)[n+](C)c3ccccc32)C1 (stereo not given) in this test?
active

Lab log entry: CCc1ccc(C2CC(c3cccc(OC)c3)n3nc(N)nc3N2)cc1 (stereo not given) — outcome as called in the assay?
inactive

---

experiment: qHTS Assay for Foot and Mouth Disease Virus Antivirals: Primary Screen against the MLPCN compound library; conditions: FMDV antiviral cell-based qHTS; series mostly up to 57.9 µM; further: nearly all actives have a fitted effect of over 55% in size; further: potency means the concentration at half of the fitted maximal effect
The campaign covered roughly 410,000 compounds. About 2,000 (0.49%) were called active. Inconclusive results (about 8%) are left out. Many of the other results were omitted from the sample, so actives are more common in it than they were.
RECORDED METRIC: Potency

Example molecules with recorded Potency:
MOLECULE | OBSERVED
CCN(CC)S(=O)(=O)c1ccc(C)c(NC(=O)CSc2nc3ccc(C)cc3[nH]2)c1 | inactive
Cc1onc(-c2ccc3c(c2)OCO3)c1-c1ccc2[nH]ccc2c1 | inactive
CCOC(=O)CC1(C)NC(C(=O)O)C(C)(C)S1 (stereo unspecified) | inactive
CC(C)(C)n1ncc2c(=O)n(Cc3c(Cl)cccc3Br)cnc21 | inactive
C[C@H](NC(=O)c1ccc(C(C)(C)C)cc1)C(=O)N1CCN(C/C=C/c2ccccc2)CC1 | inactive
CC(C)(C)n1ncc2c(=O)n(CC(=O)NCc3ccccc3)cnc21 | 20 µM (active)

Supply reported Potency belonging to this molecule: O=S(=O)(c1ccc(Cl)cc1)c1nnn2c1nc(NC1CCCCC1)c1sccc12
inactive

// fetch Potency given entry O=C(c1ccc(=O)n(Cc2ccccc2)n1)N1CCN(C/C=C/c2ccccc2)CC1
15.8 µM (active)

Return Potency for the following molecule: Cc1cc2ncc(-c3cccs3)nc2cc1C
11.2 µM (active)

Provide one value: measured Potency of FC(F)(F)c1cc(-c2cccs2)nc(-n2cc(Br)cn2)n1
inactive

Give a short answer stating reported Potency for COc1ccc([N+](=O)[O-])cc1NC(=O)C(C)OC(=O)C1CCCC1 (stereo unspecified) .
inactive
